Taken from ChEMBL document CHEMBL4304762.

testSystem: ATP-dependent Clp protease proteolytic subunit, mitochondrial (Homo sapiens)
Sequence (Q16740 whole entry): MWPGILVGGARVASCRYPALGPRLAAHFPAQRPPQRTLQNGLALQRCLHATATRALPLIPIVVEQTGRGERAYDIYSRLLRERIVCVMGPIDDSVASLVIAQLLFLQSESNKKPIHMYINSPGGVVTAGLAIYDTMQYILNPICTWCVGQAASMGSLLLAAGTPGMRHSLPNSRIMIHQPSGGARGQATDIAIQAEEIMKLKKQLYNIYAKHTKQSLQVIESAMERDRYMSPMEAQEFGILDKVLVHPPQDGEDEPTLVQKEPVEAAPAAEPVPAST
experiment: Inhibition of human ClpP expressed in Escherichia coli SG1146 cells using N-acetyl-Trp-Leu-Ala-AMC as substrate incubated for 1 hr and measured at 20 secs time interval for 90 mins by fluorescence assay
reportedConditions: read-out: IC50
assayEndpoint: pIC50
Quick note: pIC50 values are minus log10 of concentrations in mol/L.

What does the data say about its pIC50? Entry: COc1ccc(C(=O)NC(CC(C)C)C(=O)NC(Cc2ccccc2)B(O)O)c(Cl)c1 (stereo unspecified)
3.93
